biological target: T1, recombinant human VEGFR2 extracellular domain (human, UniProt P35968 20-764); assay: SPR (BIAcore 3000), VEGFR2 amine-coupled to CM5 chip, scVEGF as analyte, 1:1 model
T1 construct: extracellular domain; also called KDR; Flk-1
T1 sequence (P35968 20-764): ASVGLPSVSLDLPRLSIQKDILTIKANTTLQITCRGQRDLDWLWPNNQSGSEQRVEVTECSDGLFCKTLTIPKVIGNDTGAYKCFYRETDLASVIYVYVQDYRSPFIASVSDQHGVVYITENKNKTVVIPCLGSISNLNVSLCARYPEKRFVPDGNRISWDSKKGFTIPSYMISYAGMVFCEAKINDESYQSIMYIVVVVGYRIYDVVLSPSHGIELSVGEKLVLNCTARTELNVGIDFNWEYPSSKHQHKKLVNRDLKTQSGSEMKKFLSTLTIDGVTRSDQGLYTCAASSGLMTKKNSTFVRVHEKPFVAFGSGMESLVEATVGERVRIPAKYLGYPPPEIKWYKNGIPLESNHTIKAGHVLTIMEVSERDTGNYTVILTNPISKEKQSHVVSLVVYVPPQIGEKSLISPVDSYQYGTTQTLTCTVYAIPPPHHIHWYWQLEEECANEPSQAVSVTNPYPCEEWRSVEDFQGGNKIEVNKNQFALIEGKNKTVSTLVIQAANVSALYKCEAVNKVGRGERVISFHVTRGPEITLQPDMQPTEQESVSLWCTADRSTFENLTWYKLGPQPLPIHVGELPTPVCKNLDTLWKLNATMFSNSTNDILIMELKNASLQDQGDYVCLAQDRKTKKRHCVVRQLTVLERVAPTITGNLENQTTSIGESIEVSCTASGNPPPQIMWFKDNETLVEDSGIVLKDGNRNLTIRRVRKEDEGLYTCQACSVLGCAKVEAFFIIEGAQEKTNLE
measure: Kd (nM)
Number in nM, nothing else.

Solved cases below.
scVEGFwt (ligand, also called wild-type scVEGF; single-chain VEGF) YVEVVKFMDVYQRSYCHPIETLVDIFQEYPDEIEYIFKPSCVPLMRCGGCCNDEGLECVPTEESNITMQIMRIKPHQGQHIGEMSFLQHNKCECRPKKDGSTSGSGKSSEGKGEVVKFMDVYQRSYCHPIETLVDIFQEYPDEIEYIFKPSCVPLMRCGGCCNDEGLECVPTEESNITMQIMRIKPHQGQHIGEMSFLQHNKCECRPKKDTR :: 4
scVEGF-mA (designed binder, Soluble protein from P. pastoris with C-terminal hexahistidine tag, with or without N-terminal FLAG tag (tags not included in the parts); also called scVEGFmut-A) EVAKAMDVYQKSYCHPIETLVDILQEYPDEIGYIFKPSCVPLMRCGGCCNDAGLECVPTEESNITMQIMRIKPYQGQHIGEMSFLQHNKCECRPKKDGSTSGSGKSSEGKGEVVKFMDVYQRSYCHPIETLVDIFQEYPDKIEYAFKPSCVPLMRCGGCCNNEGLECVPTEESNITMQITRAKPHQGQHIGEMSFLQHNKCECRPKKD :: 2.1
scVEGF-mE (designed binder, Soluble protein with C-terminal hexahistidine tag, with or without N-terminal FLAG tag (tags not included in the parts); also called scVEGFmut-E) EVVKAMDVYQRSYCHPIETLVDILQEYPDEIGYIFKPSCVPLMRCGGCCNGAGLECVPTEESNITMQIMRIKPHRGQHIGEMSFLQHNKCECRPKKDGSTSGSGKSSEGKGEVVRFMDVYQRSYCHPIETLVDIFQEYPNEIEYAFKPSCVPLMRCGGCCNNEGLECVPTEESNITMQIMRAKPHQGQHIGEMSFLQHNKCECRPKKD :: 2.8
scVEGF-mM (designed binder, Soluble protein with C-terminal hexahistidine tag, with or without N-terminal FLAG tag (tags not included in the parts); also called scVEGFmut-M) EVVKAMDVYRRSYCHPVETSVDILQEYPDEIEYIFKPSCVPLMRCGGCCNDAGLECVPTEESNTTMQIMRIKPYRGQHIGEMSFLQHNKCECRPKKDGSTSGSGKSSEGKGEVVKFMDVYQRSYCHPIETLVDIFQEYPDEIEYAFKPSCVSLMRCGGCCNNEGLECVPTEESNITVQIMGAKPHQGQHIGEMSFLQHNKCECRPKKD :: 3.8

Read the entry scVEGFmut (designed binder, scVEGF with chain 1 F17A, E64A and chain 2 I46A, I83A (VEGF121 numbering); Soluble protein from P. pastoris with C-terminal hexahistidine tag, with or without N-terminal FLAG tag) YVEVVKAMDVYQRSYCHPIETLVDIFQEYPDEIEYIFKPSCVPLMRCGGCCNDAGLECVPTEESNITMQIMRIKPHQGQHIGEMSFLQHNKCECRPKKDGSTSGSGKSSEGKGEVVKFMDVYQRSYCHPIETLVDIFQEYPDEIEYAFKPSCVPLMRCGGCCNDEGLECVPTEESNITMQIMRAKPHQGQHIGEMSFLQHNKCECRPKKDTR and write its reported Kd.
18

Read the entry scVEGF-mJ (designed binder, Soluble protein with C-terminal hexahistidine tag, with or without N-terminal FLAG tag (tags not included in the parts); also called scVEGFmut-J) EIVKARDVYQRSYCHPIETLVDILQEYPDEIEYIFKPSCVPLMRCGGCCNDAGLECVPTEESNITMQIMRIKPYQGHHIGEMSFLQHNKCECRPKKDGSTSGSGKSSEGKGEVVKFMDVYQRSYCHPIETLVDIFQEYPDEIEYAFKPSCVPLMRCGGCCNNEGLECVPTEESNITMQIMRAKPHQGQHTGEMSFLQHNKCECRPKKD and write its reported Kd.
1.6
